From: patent US20100129369A1

molecular target: human c-Met (human, UniProt P08581 25-1390); experiment: cell-based or functional assay
Sequence (P08581 25-1390): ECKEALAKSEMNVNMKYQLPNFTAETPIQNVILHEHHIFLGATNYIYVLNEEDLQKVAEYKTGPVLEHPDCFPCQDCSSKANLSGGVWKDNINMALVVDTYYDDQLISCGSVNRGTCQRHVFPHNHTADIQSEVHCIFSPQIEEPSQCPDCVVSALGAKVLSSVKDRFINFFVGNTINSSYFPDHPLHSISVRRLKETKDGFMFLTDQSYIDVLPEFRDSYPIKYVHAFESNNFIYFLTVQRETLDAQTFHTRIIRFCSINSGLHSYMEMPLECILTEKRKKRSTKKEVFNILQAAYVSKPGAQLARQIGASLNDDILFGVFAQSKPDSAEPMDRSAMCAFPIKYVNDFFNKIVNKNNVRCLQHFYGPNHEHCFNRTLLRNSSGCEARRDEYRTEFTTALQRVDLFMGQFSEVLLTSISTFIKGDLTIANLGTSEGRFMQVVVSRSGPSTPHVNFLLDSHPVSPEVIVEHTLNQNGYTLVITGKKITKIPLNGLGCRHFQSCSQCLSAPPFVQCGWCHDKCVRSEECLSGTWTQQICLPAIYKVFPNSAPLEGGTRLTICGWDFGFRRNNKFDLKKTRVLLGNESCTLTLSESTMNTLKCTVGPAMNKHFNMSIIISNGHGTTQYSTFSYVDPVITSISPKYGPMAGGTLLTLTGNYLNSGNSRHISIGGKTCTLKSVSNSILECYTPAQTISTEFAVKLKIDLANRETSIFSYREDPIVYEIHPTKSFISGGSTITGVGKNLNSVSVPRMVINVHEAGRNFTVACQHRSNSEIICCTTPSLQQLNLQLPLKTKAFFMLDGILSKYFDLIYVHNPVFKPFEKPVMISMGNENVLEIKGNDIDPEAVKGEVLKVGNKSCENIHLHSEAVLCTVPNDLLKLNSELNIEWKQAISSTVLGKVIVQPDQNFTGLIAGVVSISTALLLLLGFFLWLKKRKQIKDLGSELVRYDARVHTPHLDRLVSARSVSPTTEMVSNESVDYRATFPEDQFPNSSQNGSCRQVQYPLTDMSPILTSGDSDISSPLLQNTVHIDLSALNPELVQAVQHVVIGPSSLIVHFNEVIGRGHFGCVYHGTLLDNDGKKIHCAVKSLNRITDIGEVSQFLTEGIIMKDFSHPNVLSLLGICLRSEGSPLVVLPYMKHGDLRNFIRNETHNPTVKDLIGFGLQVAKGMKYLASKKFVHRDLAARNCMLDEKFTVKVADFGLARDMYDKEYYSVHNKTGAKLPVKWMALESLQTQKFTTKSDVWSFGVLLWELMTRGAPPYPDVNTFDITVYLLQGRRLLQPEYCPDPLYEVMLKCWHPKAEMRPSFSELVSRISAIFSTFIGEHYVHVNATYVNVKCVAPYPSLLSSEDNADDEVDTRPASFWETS
assay.endpoint: AVG CPM, 3H-thymidine incorporation in MKN45 cells, Ab 555.6 ng/mL (CPM)

binder: D11-8B8 (antibody, human IgG2, kappa, V domains shown, Human engineered IgG2 kappa c-Met antibody; also called Mab D11-8B8; D11-8B8 IgG2) VH: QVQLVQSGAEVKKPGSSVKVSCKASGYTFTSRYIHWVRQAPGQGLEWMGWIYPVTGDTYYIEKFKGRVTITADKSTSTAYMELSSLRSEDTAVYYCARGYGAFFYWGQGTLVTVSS VL: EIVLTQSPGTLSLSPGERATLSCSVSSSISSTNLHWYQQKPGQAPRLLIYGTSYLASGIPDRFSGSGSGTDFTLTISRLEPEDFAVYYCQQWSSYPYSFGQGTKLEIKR
assay.result: 11900
//
binder: D11-C27G3 (antibody, human IgG2, kappa, V domains shown, Human engineered IgG2 kappa c-Met antibody; also called D11-27G3; D11-C27G3 IgG2) VH: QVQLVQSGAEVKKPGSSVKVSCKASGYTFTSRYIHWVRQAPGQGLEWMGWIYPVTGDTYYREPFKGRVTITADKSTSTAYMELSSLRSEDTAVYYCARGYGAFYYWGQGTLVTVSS VL: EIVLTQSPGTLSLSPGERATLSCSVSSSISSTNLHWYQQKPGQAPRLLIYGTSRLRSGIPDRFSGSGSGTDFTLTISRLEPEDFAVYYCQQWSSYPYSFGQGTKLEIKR
assay.result: 16000
//
binder: D11-S17Y (antibody, human IgG2, kappa, V domains shown, Human engineered IgG2 kappa c-Met antibody; also called D11-S17Y IgG2) VH: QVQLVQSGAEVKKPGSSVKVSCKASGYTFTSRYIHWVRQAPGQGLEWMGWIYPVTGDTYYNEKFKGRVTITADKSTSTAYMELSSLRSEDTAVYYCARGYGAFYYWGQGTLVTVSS VL: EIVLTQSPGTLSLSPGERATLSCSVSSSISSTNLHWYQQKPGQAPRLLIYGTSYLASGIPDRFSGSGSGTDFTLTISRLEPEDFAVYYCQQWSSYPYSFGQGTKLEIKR
assay.result: 20900
